In this section we review reported melting point values for a set of molecules.

Some molecules with recorded melting point:
COc1ccnc(C(=O)N[C@H]2COC[C@H](Cc3ccc(Cl)cc3Cl)[C@@H](Oc3ccc(C)cc3)[C@H](C)OC2=O)c1OC(C)=O ... 97 to 101 °C
COc1ccnc(C(=O)N[C@H]2COC[C@H](Cc3ccc(Cl)cc3Cl)[C@@H](OC(=O)C(C)C)[C@H](C)OC2=O)c1OC(C)=O ... 93 to 97 °C

Notebook: "CCCCCO[C@@H]1[C@@H](Cc2ccc(C)cc2)COC[C@H](NC(=O)c2nccc(OC)c2OCOC(C)=O)C(=O)O[C@H]1C" , melting point read as 39 to 43 °C
